# Subject Of Test: Histamine H3 receptor (Homo sapiens, UniProt Q9Y5N1)
# Sequence (Q9Y5N1 whole entry): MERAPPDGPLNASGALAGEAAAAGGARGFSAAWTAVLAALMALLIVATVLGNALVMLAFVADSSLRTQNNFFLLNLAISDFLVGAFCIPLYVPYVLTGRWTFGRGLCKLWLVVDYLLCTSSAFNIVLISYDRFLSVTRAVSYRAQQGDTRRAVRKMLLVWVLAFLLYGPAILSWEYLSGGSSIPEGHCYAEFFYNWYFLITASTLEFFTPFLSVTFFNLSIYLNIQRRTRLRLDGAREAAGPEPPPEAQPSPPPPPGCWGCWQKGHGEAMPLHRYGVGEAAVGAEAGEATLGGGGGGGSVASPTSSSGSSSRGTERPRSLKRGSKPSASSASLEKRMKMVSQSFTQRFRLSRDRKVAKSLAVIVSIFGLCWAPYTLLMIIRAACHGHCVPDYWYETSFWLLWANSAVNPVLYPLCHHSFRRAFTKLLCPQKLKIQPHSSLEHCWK
Quantity Measured: AC50

Use these answered entries as a reference point.
{"Compound": "OC(c1ccccc1)(c1ccccc1)C12CC[N+](CCOCc3ccccc3)(CC1)CC2", "AC50": "> 30 µM"}
{"Compound": "CC(C)C[C@H]1C(=O)N2CCC[C@H]2[C@]2(O)O[C@](NC(=O)[C@@H]3C=C4c5cccc6[nH]c(Br)c(c56)C[C@H]4N(C)C3)(C(C)C)C(=O)N12 [BROMOCRIPTINE]", "AC50": "> 30 µM"}

Lookup: Specify reported AC50 for the compound shown: CCCC1O[C@@H]2C[C@H]3[C@@H]4CCC5=CC(=O)C=C[C@]5(C)[C@H]4[C@@H](O)C[C@]3(C)[C@]2(C(=O)CO)O1 (stereo partly drawn) [BUDESONIDE]
Found: > 30 µM
